biological target: RSV F on RSV subtype B virus (mKate-RSV B 18537) (respiratory syncytial virus B 18537, UniProt P13843 26-574); test: cell-based or functional assay
Sequence (P13843 26-574): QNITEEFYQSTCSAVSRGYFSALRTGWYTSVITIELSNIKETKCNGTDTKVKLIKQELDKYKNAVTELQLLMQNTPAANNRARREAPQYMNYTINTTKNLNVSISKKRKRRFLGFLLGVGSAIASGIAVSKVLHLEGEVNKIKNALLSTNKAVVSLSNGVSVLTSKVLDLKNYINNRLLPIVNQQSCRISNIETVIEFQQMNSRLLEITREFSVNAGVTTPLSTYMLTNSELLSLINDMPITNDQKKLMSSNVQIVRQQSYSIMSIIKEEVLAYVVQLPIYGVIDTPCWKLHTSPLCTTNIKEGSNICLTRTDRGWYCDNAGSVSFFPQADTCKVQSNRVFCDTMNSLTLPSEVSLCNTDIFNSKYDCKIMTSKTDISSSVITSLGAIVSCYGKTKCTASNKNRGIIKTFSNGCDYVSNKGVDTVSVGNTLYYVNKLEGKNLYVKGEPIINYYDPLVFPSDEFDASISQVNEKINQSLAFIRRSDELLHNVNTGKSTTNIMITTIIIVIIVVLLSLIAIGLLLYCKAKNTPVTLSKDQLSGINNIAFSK
# cutoff 2 µg/mL applies to Neut IC50 subtype B; >= gives 1, < gives 0

{"columns": ["binder", "discrete_label"],
 "data": [
  ["ADI-14367 (antibody, V domains shown, full-length IgG; also called Ab 35) VH: EVQLLESGGGLVQPGGSLRLSCAASGFTFGSYDMNWVRQAPGKGLEWVSGISGSGDATYYADSVKGRFTISRDNSKNMLYLQMNSLSAEDMAVYYCARDRAFTMKYNSNWYKIYWGQGTMVTVSS VL: EIVLTQSPGTLSLSPGERATLSCRASQSVTSSYLAWYQQKPGQAPRLLIYGAFSRATGIPDRFSGSGSGTDFTLTISRLEPEDFAVYYCHHYGTSRWTFGQGTKVDIK", 0],
  ["ADI-14377 (antibody, V domains shown, full-length IgG; also called Ab 45) VH: EVQLVESGGGVVQPGGSLRLSCAVSGITFSSYGMHWVRQAPGKGLEWVAFIRYDGSNKYYGDSLRGRFTISRDNSKNTLYLQMNSLRAEDTAVYYCAKDAVGIGGYYGLDVWGQGTTVTVSS VL: DIQMTQSPSSLSASVGDRVTITCRASQGIRNDLGWYQQKPGKAPKRLIYAASSLQSGVPSRFSGSGSGTEFTLTISSLQPEDFATYYCLQHNGYPWTFGQGTKVEIK", 1],
  ["ADI-14388 (antibody, V domains shown, full-length IgG; also called Ab 55) VH: EVQLVESGGGVVQPGRSLRLSCAASGFTFSSYPMHWVRQAPGKGLEWVAVISYDGSNKYYADSVKGRFTISRDNSKNTLYLQMNSLRAEDTAVYSCARAQSAAIFDHWGQGTLVTVSS VL: QAVVTQEPSLTVSPGGTVTLTCASSTGAVTSGYYPNWFQQKPGQAPRALIYTTSKRHSWTPARFSGSLLGGKAALTLSGVQPEDEADYYCLLYYGGANWVFGGGTKLTVL", 1],
  ["ADI-24831 (antibody, V domains shown, full-length IgG; also called Ab 393) VH: QVQLVESGGGLVKPGGSLRLSCAASGFTFSSYSMNWVRQAPGKGLEWVSSISSSSSYIYYADSVKGRFTISRDNAKNSLYLQMNSLRAEDTAVYYCARVPSDFWSGYYNDYWGQGTLVTVSS VL: QSVLTQPPSVSGAPGQRVTISCTGSSSNIGAGYDVHWYQQLPGTAPKLLIYGNSNRPSGVPDRFSGSKSGTSASLAITGLQAEDEADYYCQSYDSSLSGSWVFGGGTKLTVL", 1],
  ["ADI-19510 (antibody, V domains shown, full-length IgG; also called Ab 210) VH: EVQLVESGGGLVKPGGSLRLSCAASGFSLSSYYMNWVRQAPGKGLEWVSSISSSSTYINYADSVKGRFTISRDNAKNSLYLQMNSLRAEDTAVYYCARGGSITIFGVVFDSWGQGTLVTVSS VL: SYELTQPPSVSGAPGQRVTISCTGTSSNIGAGYDVHWYQQLPGTAPKLLIYVNSNRPSGVPDRFSGSKSGTSASLAITGLQAEDEADYYCQSYDSSLSGGVFGTGTKVTVL", 0]
]}

Exam item: Identify whether the reported Neut IC50 subtype B of the following binder is 2 µg/mL or greater: ADI-22759 (antibody, V domains shown, full-length IgG) VH: EVQLLESGGGLVKPGGSLRLSCAASGFSFSSYTMNWVRQAPGKGLEWVSSITGGSSYIDYAGSLKGRFTISRDNAKNSLYLQMNSLRVEDTAVYYCARDFPNIAVGGKTLDYWGQGTLVTVSS VL: QPVLTQPPSVSGAPGQRVTISCTGSSSNIGAGYDVHWFQQLPGTAPKLLIYVNNNRPSGVPDRFSGSKSGTSASLAITGLQAEDEADYYCQSYDRLSAVVFGGGTKVTVL
Marked response: 0

Exam item: Identify whether the reported Neut IC50 subtype B of the following binder is 2 µg/mL or greater: ADI-14350 (antibody, V domains shown, full-length IgG; also called Ab 18) VH: EVQLVESGPGLVKPSETLSLTCTVSGDSVSNNNYYWNWIRQSPGKGLEWIGYIYYSGSTDYNPSLKSRVTISVDTSKNQFSLNLRSVTAADTAIYFCASAPWGMFTILGVVP VL: QSVLTQPPSVSGAPGQRVTISCTGSSSNIGAGYDVHWYQQLPGTAPKLLIYGSSNRPSGVPDRFSGSRSGTSASLAITGLQAEDEADYYCQSYDGSLGVYVFATGTKVTVL
Marked response: 1

Exam item: Identify whether the reported Neut IC50 subtype B of the following binder is 2 µg/mL or greater: ADI-25555 (antibody, V domains shown, full-length IgG) VH: QVQLVQSGGGLVKPGGSLRLSCAASGFTFSSYSMNWVRQAPGKGLEWVSSISSSSSYIYYADSVKGRFTISRDNAKNSLYLQMNSLRAEDTAVYYCARQRGGIAVAGTYFDLWGRGTLVTVSS VL: QPVLTQPPSVSGAPGQRVTISCTGSSSNIGAGYDVHWYQQLPGTAPKLLIYGNSNRPSGVPDRFSGSKSGTSASLAITGLQAEDEADYYCQSYDSTVVFGGGTKLTVL
Marked response: 1

Exam item: Identify whether the reported Neut IC50 subtype B of the following binder is 2 µg/mL or greater: ADI-22757 (antibody, V domains shown, full-length IgG) VH: EVQLLESGAEVKKPGASVKVSCKASGYTFSNYGISWVRQAPGQGLEWMGWISVYNGNTEYAQKFQGRLTMTTDTSTSTAYMELRSLRSDDTAVYYCARDPPAVAASFMDVWGQGTTVTVSS VL: EIVLTQSPLSLPVTLGQPASISCRSSQSLVHSEGNTYLSWFQQRPGQSPRRLIYKVSNRDSGVPDRFSGSGSGTDFTLKISRVEAEDVGLYFCMQGTHWPPTFGGGTKVEIK
Marked response: 0

Exam item: Identify whether the reported Neut IC50 subtype B of the following binder is 2 µg/mL or greater: ADI-19509 (antibody, V domains shown, full-length IgG) VH: EVQLVESGGGLVKPGGSLRLSCAASGFTFSSYSMNWVRQAPGKGLEWVSSISSSSSYIYYADSVKGRFTISRDNAKNSLYLQMNSLRAEDTAVYYCASSRRSLTGDRGGWFDPWGQGTLVTVSS VL: QSVLTQPPSVSGAPGQRVTISCTGSSSNIGAGYDVHWYQQLPGTAPKLLIYGNSNRPSGVPDRFSGSKSGTSASLAITGLQAEDEADYYCQSYDSSLSGWVFGGGTKLTVL
Marked response: 0

Provenance of the data: patent US20260258115A1
